The following compounds are listed with their measured Tmax values.
assay type: in vivo, rat; details: rat; dosed as prodrug, 10 mg/kg equivalent of Base Structure; analyte Prodrug; Combined (average ± std. dev.)
Answer with a number only, understood to be in h.

# count of solved cases: 3
>  <compound>
CCCCCC(=O)NC(Cc1ccc(OP(=O)(OCCN(C)C)OCCN(C)C)cc1)C(=O)NC(C(=O)NCCCCCC(N)=O)C(C)CC (stereo not shown)

>  <unit_abbrev>
h

>  <Tmax>
1.5

$$$$
>  <compound>
CCCCCC(=O)N1C(Cc2ccc(OP(=O)([O-])[O-])cc2)C(=O)N(C(C(=O)NCCCCCC(N)=O)C(C)CC)C12CCN(C)CC2.[Na+].[Na+] (stereo not shown)

>  <unit_abbrev>
h

>  <Tmax>
0

$$$$
>  <compound>
CCCCCC(=O)NC(Cc1ccc(OC(=O)NCCN(C)C)cc1)C(=O)NC(C(=O)NCCCCCC(N)=O)C(C)CC (stereo not shown)

>  <unit_abbrev>
h

>  <Tmax>
0.8

$$$$

Now, please, on to the next compound.
**Q:** Item CCCCCC(=O)NC(Cc1ccc(OC(=O)N2CCN(C)CC2)cc1)C(=O)NC(C(=O)NCCCCCC(N)=O)C(C)CC (stereo not shown) has what recorded Tmax?
**A:** 0

====

The following compounds are listed with their measured SIF Stability (pH 6.8) 120 min values.
assay: Metabolic stability in simulated intestinal fluid (SIF), pH 6.8, with or without pancreatin; format: in vitro ADME; details: +Pancreatin (1%), 5 μM, 37° C., 120 min
Where a SMILES comes first, the peptide text is derived from it. [ ]: non-standard residue; d: D form. The star is where a group is joined. ξ: configuration not given here. pY = N[CH](Cc1ccc(OP(=O)(O)O)cc1)C(=O)O; ξpY = NC(Cc1ccc(OP(=O)(O)O)cc1)C(=O)O; Ile(3ξ) = CCC(C)[C@H](N)C(=O)O; Hexanoyl = CCCCCC(=O)*; Ahx = NCCCCCC(=O)O
Answer with a number only, understood to be in %.

>  <compound>
CCCCCC(=O)NC(Cc1ccc(OP(=O)([O-])O)cc1)C(=O)NC(C(=O)NCCCCCC(N)=O)C(C)CC.[Na+] (stereo not drawn) [Compound A30] (Hexanoyl-[pY]-Ile-[Ahx]-NH2; configuration not given here)

>  <SIF Stability (pH 6.8) 120 min (%)>
51

$$$$
>  <compound>
CCCCCC(=O)NC(Cc1ccc(OP(=O)(O)O)cc1)C(=O)N[C@H](C(=O)NCCCCCC(N)=O)C(C)CC.N.N (stereo partly drawn) [Compound A29] (Hexanoyl-[ξpY]-[Ile(3ξ)]-[Ahx]-NH2)

>  <SIF Stability (pH 6.8) 120 min (%)>
98

$$$$

Now, please, on to the next compound.
**Q:** Item CCCCCC(=O)NC(Cc1ccc(OC(=O)N2CCN(C)CC2)cc1)C(=O)NC(C(=O)NCCCCCC(N)=O)C(C)CC (stereo not drawn) has what recorded SIF Stability (pH 6.8) 120 min?
**A:** 54

====

type: in vivo, rat; details: Rat, PO, 10 mg/kg equiv., n = 4; analyte: Parent (BASE STRUCTURE)
Where a SMILES comes first, the peptide text is derived from it. [ ]: non-standard residue; d: D form. The star is where a group is joined. ξ: configuration not given here. ξpY = NC(Cc1ccc(OP(=O)(O)O)cc1)C(=O)O; Ile(3ξ) = CCC(C)[C@H](N)C(=O)O; Hexanoyl = CCCCCC(=O)*; Ahx = NCCCCCC(=O)O
experimental_readout: half-life (h)
Answer with a number only, understood to be in h.

# count of solved cases: 3
>  <compound>
CCCCCC(=O)NC(Cc1ccc(OP(=O)(O)O)cc1)C(=O)N[C@H](C(=O)NCCCCCC(N)=O)C(C)CC.N.N (stereo partly shown) [Compound A29] (Hexanoyl-[ξpY]-[Ile(3ξ)]-[Ahx]-NH2)

>  <half-life, h>
15.7

$$$$
>  <compound>
CCCCCC(=O)NC(Cc1ccc(OC(=O)N2CCN(C)CC2)cc1)C(=O)NC(C(=O)NCCCCCC(N)=O)C(C)CC (stereo not shown)

>  <half-life, h>
0.17

$$$$
>  <compound>
CCCCCC(=O)NC(Cc1ccc(OC(=O)NCCN(C)C)cc1)C(=O)NC(C(=O)NCCCCCC(N)=O)C(C)CC (stereo not shown)

>  <half-life, h>
81.7

$$$$

Now, please, on to the next compound.
**Q:** Item CCCCCC(=O)NC(Cc1ccc(OP(=O)(OCCN(C)C)OCCN(C)C)cc1)C(=O)NC(C(=O)NCCCCCC(N)=O)C(C)CC (stereo not shown) has what recorded half-life?
**A:** 3.5

====

format: in vivo, rat; details: Rat, PO, 10 mg/kg equiv., n = 4; analyte: Prodrug
Where a SMILES comes first, the peptide text is derived from it. [ ]: non-standard residue; d: D form. The star is where a group is joined. ξ: configuration not given here. ξpY = NC(Cc1ccc(OP(=O)(O)O)cc1)C(=O)O; Ile(3ξ) = CCC(C)[C@H](N)C(=O)O; Hexanoyl = CCCCCC(=O)*; Ahx = NCCCCCC(=O)O
The following molecules are listed with their measured Tmax values.
Answer with a number only, understood to be in h.

>  <molecule>
CCCCCC(=O)NC(Cc1ccc(OP(=O)(OCCN(C)C)OCCN(C)C)cc1)C(=O)NC(C(=O)NCCCCCC(N)=O)C(C)CC (stereo not shown)

>  <Tmax (h)>
1.5

$$$$
>  <molecule>
CCCCCC(=O)NC(Cc1ccc(OC(=O)NCCN(C)C)cc1)C(=O)NC(C(=O)NCCCCCC(N)=O)C(C)CC (stereo not shown)

>  <Tmax (h)>
0.8

$$$$
>  <molecule>
CCCCCC(=O)NC(Cc1ccc(OC(=O)N2CCN(C)CC2)cc1)C(=O)NC(C(=O)NCCCCCC(N)=O)C(C)CC (stereo not shown)

>  <Tmax (h)>
0

$$$$

Now, please, on to the next molecule.
**Q:** Item CCCCCC(=O)NC(Cc1ccc(OP(=O)(O)O)cc1)C(=O)N[C@H](C(=O)NCCCCCC(N)=O)C(C)CC.N.N (stereo partly shown) [Compound A29] (Hexanoyl-[ξpY]-[Ile(3ξ)]-[Ahx]-NH2) has what recorded Tmax?
**A:** 0

====

test: Plasma stability study, rat plasma; format: in vitro ADME; details: Rat plasma, 1 μM, 37° C., 120 min
Where a SMILES comes first, the peptide text is derived from it. [ ]: non-standard residue; d: D form. The star is where a group is joined. pY = N[CH](Cc1ccc(OP(=O)(O)O)cc1)C(=O)O; Hexanoyl = CCCCCC(=O)*; Ahx = NCCCCCC(=O)O
Assign y whenever Plasma Stability (% Parent Remaining) 120 min does not fall below 60%; assign n whenever it does.

>  <compound>
CCCCCC(=O)N1C(Cc2ccc(OP(=O)([O-])[O-])cc2)C(=O)N(C(C(=O)NCCCCCC(N)=O)C(C)CC)C12CCN(C)CC2.[Na+].[Na+] (centres unmarked) [Compound 2]

>  <cat>
y

$$$$
>  <compound>
CCCCCC(=O)NC(Cc1ccc(OC(=O)N2CCN(C)CC2)cc1)C(=O)NC(C(=O)NCCCCCC(N)=O)C(C)CC (centres unmarked) [Compound A20]

>  <cat>
n

$$$$

**Q:** Decide: is the reported value of Plasma Stability (% Parent Remaining) 120 min for CCCCCC(=O)NC(Cc1ccc(OC(=O)NCCN(C)C)cc1)C(=O)NC(C(=O)NCCCCCC(N)=O)C(C)CC (centres unmarked) [Compound A21] equal to or greater than 60%?
**A:** n

**Q:** Decide: is the reported value of Plasma Stability (% Parent Remaining) 120 min for CCCCCC(=O)N[C@@H](Cc1ccc(O)cc1)C(=O)N[C@H](C(=O)NCCCCCC(N)=O)[C@@H](C)CC [Base Structure, reference compound] (Hexanoyl-Tyr-Ile-[Ahx]-NH2) equal to or greater than 60%?
**A:** y

**Q:** Decide: is the reported value of Plasma Stability (% Parent Remaining) 120 min for CCCCCC(=O)NC(Cc1ccc(OP(=O)([O-])O)cc1)C(=O)NC(C(=O)NCCCCCC(N)=O)C(C)CC.[Na+] (centres unmarked) [Compound A30] (Hexanoyl-[pY]-Ile-[Ahx]-NH2; configuration not given here) equal to or greater than 60%?
**A:** y

====

Assay: Metabolic stability in simulated gastric fluid (SGF), pH 1.2, with or without pepsin
Assay type: in vitro ADME
Conditions: −Pepsin, 5 μM, 37° C., 60 min
Experimental: Metabolic Stability in SIF and SGF (Simulated Intestinal and Gastric Fluid) Buffer 1=SGF without enzyme Buffer 2=SGF with 0.32% pepsin SIF was prepared freshly with 8.7 mM NaOH, 28.65 mM NaH2PO4, 105.85 mM NaCl, with a final pH of 6.8. SGF was prepared freshly with 34.2 mM NaCl, with a final pH of 1.2. […] Compounds were dissolved as 1.5 mM DMSO stocks. […] The extent of metabolism was calculated as the disappearance of the test compound, compared to the 0-min control reaction incubations. […]
Where a SMILES comes first, the peptide text is derived from it. [ ]: non-standard residue; d: D form. The star is where a group is joined. ξ: configuration not given here. pY = N[CH](Cc1ccc(OP(=O)(O)O)cc1)C(=O)O; ξpY = NC(Cc1ccc(OP(=O)(O)O)cc1)C(=O)O; Ile(3ξ) = CCC(C)[C@H](N)C(=O)O; Hexanoyl = CCCCCC(=O)*; Ahx = NCCCCCC(=O)O
experimental_readout: SGF Stability (pH 1.2) 60 min (%)
Answer with a number only, understood to be in %.

>  <molecule>
CCCCCC(=O)N[C@@H](Cc1ccc(O)cc1)C(=O)N[C@H](C(=O)NCCCCCC(N)=O)[C@@H](C)CC [Base Structure, reference compound] (Hexanoyl-Tyr-Ile-[Ahx]-NH2)

>  <numeric_value>
127

$$$$

**Q:** Item CCCCCC(=O)NC(Cc1ccc(OP(=O)([O-])O)cc1)C(=O)NC(C(=O)NCCCCCC(N)=O)C(C)CC.[Na+] (stereo not drawn) [Compound A30] (Hexanoyl-[pY]-Ile-[Ahx]-NH2; configuration not given here) has what recorded SGF Stability (pH 1.2) 60 min?
**A:** 95

**Q:** Item CCCCCC(=O)N1C(Cc2ccc(OP(=O)([O-])[O-])cc2)C(=O)N(C(C(=O)NCCCCCC(N)=O)C(C)CC)C12CCN(C)CC2.[Na+].[Na+] (stereo not drawn) has what recorded SGF Stability (pH 1.2) 60 min?
**A:** 84

**Q:** Item CCCCCC(=O)NC(Cc1ccc(OC(=O)N2CCN(C)CC2)cc1)C(=O)NC(C(=O)NCCCCCC(N)=O)C(C)CC (stereo not drawn) has what recorded SGF Stability (pH 1.2) 60 min?
**A:** 70

**Q:** Item CCCCCC(=O)NC(Cc1ccc(OP(=O)(O)O)cc1)C(=O)N[C@H](C(=O)NCCCCCC(N)=O)C(C)CC.N.N (stereo partly drawn) [Compound A29] (Hexanoyl-[ξpY]-[Ile(3ξ)]-[Ahx]-NH2) has what recorded SGF Stability (pH 1.2) 60 min?
**A:** 117

**Q:** Item CCCCCC(=O)NC(Cc1ccc(OP(=O)(OCCN(C)C)OCCN(C)C)cc1)C(=O)NC(C(=O)NCCCCCC(N)=O)C(C)CC (stereo not drawn) has what recorded SGF Stability (pH 1.2) 60 min?
**A:** 51
